# soluble fraction (log2) values compiled below
- experimental-protocol: soluble fraction after stress (log2 fold change); higher = more stays soluble; pooled small domains, quantitative proteomics
- protocol-conditions: stress: 50 degC
Provide a numeric answer; units are not to be included.

Example sequences with recorded soluble fraction (log2):
q: Entry HMQSAMALTKDLIEQQGKYYHRGQPFTGVGFAKNKKGKFVTEEPFKNGLLHGKRVNYDHNGHVLAREK : reported soluble fraction (log2) = ?
a: 0.264

q: Entry HMGASFITSSKDNAINIRESATTDSKVIETIKNGEILESTEKSGDWHKVTYYNSEIKKSFTGYIHNSQLK : reported soluble fraction (log2) = ?
a: 0.168

q: Entry HMSMQIILLDKVVNLGGLGDVVKVKDGYARNYLIPQGKAKRANTANLAEFEARRVELERLAAEQLAQAQA : reported soluble fraction (log2) = ?
a: 0.0814

q: Entry HMLQQKESAALGERLLNQALATLKVEPDAISWDRWEALAKEYGAKSQLDILADIGLGKRLSFVVAQALTKV : reported soluble fraction (log2) = ?
a: -0.535

q: Entry HMKRNLVSVLDHIVGIGPKRRQSLRTHFGSLEKIKEASVEELAAAPGMNRTSAEAVRHFFDAQQELRGK : reported soluble fraction (log2) = ?
a: 0.537

Next up:
q: Entry HMGIFDIIQEINRQGVTVLLIEQNANMALKIADVGYVLETGRISLTGSGRELLANEAVKKAYL : reported soluble fraction (log2) = ?
a: -0.0514

* * *

- experimental-protocol: soluble fraction after stress (log2 fold change); higher = more stays soluble; pooled small domains, quantitative proteomics
- protocol-conditions: stress: 50 degC
Label MET when soluble fraction (log2) is at or above -0.7; anything below gets NOT MET.

The following sequences have reported results that may help.
q: Check the entry HMDLANLQNGQTLPLQRDVEVISIPFGKTISLSEDSVVSIMQAKGSSVSVAYEGRLYLIEGSNLDALGLEP : does soluble fraction (log2) equal or exceed -0.7?
a: NOT MET

q: Check the entry HMEMNPLDIQNKAAELAQQWLQLPVGERQKQMAAVRTSNPNLHAMAKQKMEEMRSQAESQGRQSLSQP : does soluble fraction (log2) equal or exceed -0.7?
a: MET

q: Check the entry HMTNIQFINLKMTDNHPWIHQYIKDIILPPQTRIVMIKRNDIKTIPKGERRIEKDDELILSAFESQT : does soluble fraction (log2) equal or exceed -0.7?
a: NOT MET

q: Check the entry HMEGAEDMNRALALAFLRDNSRSTVAQLAEHLGSSKRSAERLVAQLKDEGVLERQGSPRAGLWIVHI : does soluble fraction (log2) equal or exceed -0.7?
a: MET

q: Check the entry HMLYDNQLPDWAGQMVKNHGLTISPKALVILVDHIGNDLSRIENEIEKLMLNLGTRKSITEDDVEN : does soluble fraction (log2) equal or exceed -0.7?
a: NOT MET

q: Check the entry HMEAYSAEAVRFRIKAMIESETVDDVMSDDKIVERLLADGVDIARRTVAKYREAMNIPSSVKRRRKLKGM : does soluble fraction (log2) equal or exceed -0.7?
a: NOT MET

Others:
q: Check the entry HMGSEGVKVEDTIGMSEAEATATLGKSGFVVNKTESHDPYIKAGNVITQSPAAGSKAPKGTTVTLTISLGP : does soluble fraction (log2) equal or exceed -0.7?
a: MET

q: Check the entry HMKLEKKWIEAVEKYRRYVLSTGIKHVQKPIEFENFRLGQWYADVRQSYRRGTLSKEKLLEIREINPDFPN : does soluble fraction (log2) equal or exceed -0.7?
a: MET

Data provenance is the domain aggregation screens of Martell et al. (2025).
